Value source: paper PMC6470842

- experiment: Systemic pharmacokinetics after intravenous administration in rats (noncompartmental analysis)
- conditionInfo: male, SD, rat, plasma, iv, 100 mg/kg, MRT, rats, iv 100 mg/kg cimetidine
readoutLabel: MRT (h)
Numbers only, in h.

Task item: Quick one: give measured MRT for CN/C(=N/CCSCc1nc[nH]c1C)NC#N
Reply: 1.35

###

- experiment: Tissue distribution of PA and NAPA at steady state (Kp,ss)
- conditionInfo: male, SD, rat, brain, intravenous, Kp,ss Brain, rats, PA HCl infusion, co-treatment with cimetidine 100 mg/kg iv
readoutLabel: Kp at 60 min
Answers are plain numbers.

Task item: Look up Kp at 60 min of CCN(CC)CCNC(=O)c1ccc(NC(C)=O)cc1 [NAPA, N-acetylprocainamide] and report it.
Reply: 0.0893
